target: recombinant human matriptase (Homo sapiens, UniProt Q9Y5Y6); construct: purchased R&D Systems (Minneapolis, MN, USA); experiment: Enzyme inhibition assay with purified matriptase (Ki, dose-response); assay type: biochemical; details: 30 min preincubation, substrate Boc-Gln-Ala-Arg-AMC
Sequence (Q9Y5Y6 whole entry): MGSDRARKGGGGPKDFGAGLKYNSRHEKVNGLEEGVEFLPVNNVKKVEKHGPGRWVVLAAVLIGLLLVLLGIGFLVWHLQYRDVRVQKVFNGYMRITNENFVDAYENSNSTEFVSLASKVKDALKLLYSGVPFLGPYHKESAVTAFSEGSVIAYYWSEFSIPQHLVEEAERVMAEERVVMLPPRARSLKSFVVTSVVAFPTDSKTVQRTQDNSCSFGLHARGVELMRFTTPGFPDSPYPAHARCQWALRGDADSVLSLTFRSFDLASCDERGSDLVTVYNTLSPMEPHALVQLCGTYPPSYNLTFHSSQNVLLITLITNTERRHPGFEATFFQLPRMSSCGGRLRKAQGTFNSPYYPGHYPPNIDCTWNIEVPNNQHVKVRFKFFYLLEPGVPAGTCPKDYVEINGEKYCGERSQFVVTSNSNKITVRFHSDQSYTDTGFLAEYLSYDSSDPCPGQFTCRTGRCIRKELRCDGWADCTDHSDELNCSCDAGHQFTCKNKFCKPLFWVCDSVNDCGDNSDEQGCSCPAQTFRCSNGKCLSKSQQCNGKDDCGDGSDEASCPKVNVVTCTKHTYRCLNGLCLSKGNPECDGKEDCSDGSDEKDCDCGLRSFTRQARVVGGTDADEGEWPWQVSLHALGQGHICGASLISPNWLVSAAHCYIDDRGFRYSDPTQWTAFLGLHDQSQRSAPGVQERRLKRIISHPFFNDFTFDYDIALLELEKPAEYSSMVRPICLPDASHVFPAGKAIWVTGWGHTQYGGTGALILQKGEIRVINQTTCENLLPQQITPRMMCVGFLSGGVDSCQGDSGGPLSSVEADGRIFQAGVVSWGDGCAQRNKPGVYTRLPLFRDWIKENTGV
measureName: Ki

Per the record, ace-Arg-Pro-Arg-kbt [Compound 2] has Ki of 3.3 nM

###

target: factor Xa (Homo sapiens, UniProt P00742); construct: purchased Bio-Techne GmbH (Wiesbaden, Germany); assay: Enzyme inhibition assay with purified factor Xa (Ki, dose-response); assay type: biochemical; settings: 30 min preincubation, substrate Bz-Ile-Glu-Gly-Arg-pNA
Sequence (P00742 235-488 limits assumed): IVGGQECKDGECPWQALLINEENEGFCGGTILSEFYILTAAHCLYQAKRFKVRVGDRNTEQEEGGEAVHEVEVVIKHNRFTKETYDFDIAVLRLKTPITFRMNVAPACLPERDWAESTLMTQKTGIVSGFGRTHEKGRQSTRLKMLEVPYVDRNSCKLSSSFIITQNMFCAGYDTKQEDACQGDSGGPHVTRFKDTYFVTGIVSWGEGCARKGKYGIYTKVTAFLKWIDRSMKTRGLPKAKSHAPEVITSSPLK
Sequence (P00742 41-179 partner limits assumed): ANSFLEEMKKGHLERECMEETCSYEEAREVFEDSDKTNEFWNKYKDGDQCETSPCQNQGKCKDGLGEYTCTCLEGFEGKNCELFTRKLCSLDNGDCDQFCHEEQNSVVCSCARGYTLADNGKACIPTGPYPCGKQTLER
measureName: Ki (µM)
Expressed in µM, but write only the number.

// Ki (factor Xa (Homo sapiens, UniProt P00742)) for ace-Arg-Pro-Arg-kbt [Compound 2] = 0.107

###

system: lentiviral pseudoparticles carrying SARS-CoV-2 Beta (B.1.351) spike, Caco-2 cells; type: cell-based; details: Caco-2 cells, luciferase 2 days post transduction; read-out: IC50 pseudotyped lentivirus Beta
Counter-ions that a name gives are not always drawn.
measureName: IC50 (nM)
Expressed in nM, but write only the number.

Per the record, CN(C)C(=O)COC(=O)Cc1ccc(OC(=O)c2ccc(NC(=N)N)cc2)cc1 [CM, camostat mesylate, reference compound] has IC50 of 156

###

test system: lentiviral pseudoparticles carrying SARS-CoV-2 Wuhan-Hu-1 spike, Caco-2 cells; type: cell-based; conditions: Caco-2 cells, luciferase 2 days post transduction; read-out: IC50 pseudotyped lentivirus Wuhan-Hu-1
measureName: IC50 (µM)
Expressed in µM, but write only the number.

Per the record, ace-Arg-Pro-Arg-kbt [Compound 2] has IC50 of 1.62

###

system: SARS-CoV-2 Alpha (B.1.1.7), Caco-2 cells; format: cell-based; conditions: read-out: IC50 SARS-CoV-2 Alpha
measureName: IC50

Per the record, ace-Arg-Pro-Arg-kbt [Compound 2] has IC50 of ~20 µM

###

test system: SARS-CoV-2 Wuhan-Hu-1, Caco-2 cells; format: cell-based; conditions: read-out: IC50 SARS-CoV-2 Wuhan-Hu-1 (text)
Where a name gives a salt, the structure may show the parent alone.
measureName: IC50
Report the figure along with its unit, number first.

Per the record, CN(C)C(=O)COC(=O)Cc1ccc(OC(=O)c2ccc(NC(=N)N)cc2)cc1 [CM, camostat mesylate, reference compound] has IC50 of 3.6 µM

###

Measured pKi, listed per entry.
biological target: recombinant human matriptase (Homo sapiens, UniProt Q9Y5Y6); assay: Enzyme inhibition assay with purified matriptase (Ki, dose-response); settings: 30 min preincubation, substrate Boc-Gln-Ala-Arg-AMC
Structures can show the parent of a compound that is named as a salt.
Worth noting: pKi values are minus log10 of concentrations stated in mol/L.

Examples with their reported pKi follow.
compound	number
CN(C)C(=O)COC(=O)Cc1ccc(OC(=O)c2ccc(NC(=N)N)cc2)cc1 [CM, camostat mesylate, reference compound]	9.22
CC(=O)NC(CCCNC(=N)N)C(=O)NC(CC1CCC1)C(=O)NC(CCCNC(=N)N)C(=O)c1nccs1 (stereo not drawn)	6.85

// next item, pKi requested
Per the record, NC(N)=Nc1ccc(C(=O)Oc2ccc(CC(=O)O)cc2)cc1 [FOY-251, reference compound] has pKi of 6.76

###

test system: SARS-CoV-2 Alpha (B.1.1.7), Caco-2 cells; type: cell-based; conditions: read-out: IC50 SARS-CoV-2 Alpha (text)
Counter-ions that a name gives are not always drawn.
measureName: pIC50
Worth noting: pIC50 values are minus log10 of concentrations stated in mol/L.

Per the record, CN(C)C(=O)COC(=O)Cc1ccc(OC(=O)c2ccc(NC(=N)N)cc2)cc1 [CM, camostat mesylate, reference compound] has pIC50 of 4.79

###

biological target: cellular TMPRSS2 activity, Caco-2 cells (Homo sapiens, UniProt O15393); settings: read-out: IC50 Caco2; cell-mediated proteolysis of Boc-Gln-Ala-Arg-AMC, 30 min preincubation
Sequence (O15393 whole entry): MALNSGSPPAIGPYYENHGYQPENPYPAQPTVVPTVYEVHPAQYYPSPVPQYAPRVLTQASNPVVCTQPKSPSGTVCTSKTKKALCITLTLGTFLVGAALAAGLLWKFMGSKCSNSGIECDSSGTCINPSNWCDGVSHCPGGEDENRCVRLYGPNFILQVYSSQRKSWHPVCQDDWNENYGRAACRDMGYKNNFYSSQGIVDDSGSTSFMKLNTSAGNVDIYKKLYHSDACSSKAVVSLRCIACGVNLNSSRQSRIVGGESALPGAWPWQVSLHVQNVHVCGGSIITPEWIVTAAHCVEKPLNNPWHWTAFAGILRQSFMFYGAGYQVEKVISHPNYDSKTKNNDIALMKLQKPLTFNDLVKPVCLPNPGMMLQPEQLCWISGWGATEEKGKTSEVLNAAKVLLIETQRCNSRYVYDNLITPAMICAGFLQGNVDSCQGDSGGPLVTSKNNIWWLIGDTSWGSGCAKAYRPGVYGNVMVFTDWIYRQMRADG
measureName: pIC50
Worth noting: pIC50 values are minus log10 of concentrations stated in mol/L.

Per the record, ace-Arg-Pro-Arg-kbt [Compound 2] has pIC50 of 7.49

###

Molecular target: TMPRSS2 (Homo sapiens, UniProt O15393)
Assay type: biochemical
Design: purchased Creative BioMart (New York, USA) or LSBio (Seattle, USA)
Details: 30 min preincubation, substrate Boc-Gln-Ala-Arg-AMC; Ki from IC50 by Cheng–Prusoff
From the text: Recombinant human TMPRSS2 was purchased from Creative BioMart (New York, USA) or LSBio (Seattle, USA), factor Xa was obtained from Bio-Techne GmbH (Wiesbaden, Germany). Recombinant human thrombin and matriptase protein were purchased from R&D Systems (Minneapolis, MN, USA).
measureName: Ki (nM)
Expressed in nM, but write only the number.

Per the record, ace-Arg-Pro-Arg-kbt [Compound 2] has Ki of 3.8

###

target: TMPRSS2 expressed in HEK293T cells (Homo sapiens, UniProt O15393); construct: host or cells: HEK293T (ATCC); experiment: Inhibition of cellular TMPRSS2 activity on HEK293T cells transiently expressing TMPRSS2; assay type: cell-based; settings: corrected for mock-transfected HEK293T cells, 2 h
measureName: pIC50
Worth noting: pIC50 values are minus log10 of concentrations stated in mol/L.

// pIC50 (TMPRSS2 expressed in HEK293T cells (Homo sapiens, UniProt O15393)) for ace-Arg-Pro-Arg-kbt [Compound 2] = 8.46

###

tested on: SARS-CoV-2 Wuhan-Hu-1, Caco-2 cells; assay type: cell-based; details: read-out: IC50 SARS-CoV-2 Wuhan-Hu-1 (text)
measureName: pIC50
Worth noting: pIC50 values are minus log10 of concentrations stated in mol/L.

Per the record, ace-Arg-Pro-Arg-kbt [Compound 2] has pIC50 of 5.34

###

target: recombinant human thrombin (Homo sapiens); construct: purchased R&D Systems (Minneapolis, MN, USA); assay: Enzyme inhibition assay with purified thrombin (Ki, dose-response); type: biochemical; conditions: 30 min preincubation, substrate D-Phe-Homopro-Arg-pNA
measureName: Ki (nM)
Expressed in nM, but write only the number.

Per the record, ace-Arg-Pro-Arg-kbt [Compound 2] has Ki of 599

###

Where a name gives a salt, the structure may show the parent alone.
As a worked illustration, we turn to Ki data collected for factor Xa (Homo sapiens, UniProt P00742).
Expressed in nM, but write only the number.

Examples with their reported Ki follow.
compound	number
NC(N)=Nc1ccc(C(=O)Oc2ccc(CC(=O)O)cc2)cc1 [FOY-251, reference compound]	697
CN(C)C(=O)COC(=O)Cc1ccc(OC(=O)c2ccc(NC(=N)N)cc2)cc1 [CM, camostat mesylate, reference compound]	1790

// next item, Ki requested
Per the record, CC(=O)NC(CCCNC(=N)N)C(=O)NC(CC1CCC1)C(=O)NC(CCCNC(=N)N)C(=O)c1nccs1 (stereo not drawn) has Ki of 98.7
